- system_under_test: NRF2/Keap1 (Homo sapiens, UniProt Q14145)
- Construct: full length NRF2 protein and full length Keap1 protein (Keap1 exists a dimer) are used
- Sequence (Q14145 whole entry): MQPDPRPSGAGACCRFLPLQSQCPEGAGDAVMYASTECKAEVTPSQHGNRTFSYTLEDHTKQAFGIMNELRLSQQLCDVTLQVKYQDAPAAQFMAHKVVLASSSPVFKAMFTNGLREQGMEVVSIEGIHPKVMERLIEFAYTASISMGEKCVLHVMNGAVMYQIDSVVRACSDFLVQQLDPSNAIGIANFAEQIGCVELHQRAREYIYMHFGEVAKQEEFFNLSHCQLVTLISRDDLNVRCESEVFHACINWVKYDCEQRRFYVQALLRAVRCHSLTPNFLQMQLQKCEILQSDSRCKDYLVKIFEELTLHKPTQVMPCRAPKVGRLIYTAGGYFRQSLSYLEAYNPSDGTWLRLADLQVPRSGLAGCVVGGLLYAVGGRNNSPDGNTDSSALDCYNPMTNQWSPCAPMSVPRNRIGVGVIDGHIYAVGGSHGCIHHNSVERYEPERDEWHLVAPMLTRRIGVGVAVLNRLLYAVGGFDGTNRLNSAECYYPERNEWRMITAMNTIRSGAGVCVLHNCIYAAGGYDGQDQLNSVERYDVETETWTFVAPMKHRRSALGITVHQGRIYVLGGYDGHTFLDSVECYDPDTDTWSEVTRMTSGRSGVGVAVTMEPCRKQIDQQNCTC
- protocol: NRF2-Keap1 TR-FRET Assay (full length NRF2 and full length Keap1)
- Assay type: binding
- settings: 25 nM Keap1-FlagHis, 50 nM biotin-NRF2 added
- Description: In the NRF2-Keap1 TR-FRET (time-resolved fluorescence resonance energy transfer) assay, full length NRF2 protein and full length Keap1 protein (Keap1 exists a dimer) are used. The assay detects the ability of compound to displace the binding of FlagHis-tagged Keap1 with biotinylated, Avi-tagged NRF2 protein. […]
# Lookup of reported IC50 keyed by entry

>  <molecule>
O=C(O)c1cnn(-c2cccc(C3CCCC(n4ncc5c4CCCCC5)C3)c2)c1C1CC1 (racemic)

>  <system_under_test>
NRF2/Keap1 (Homo sapiens, UniProt Q14145)

>  <IC50>
1 to 10 µM

$$$$
>  <molecule>
CCCC1CCCCN1C(=O)[C@H]1CCC[C@@H](c2cccc(-n3ncc(C(=O)O)c3C3CC3)c2)C1 (mixture of isomers)

>  <system_under_test>
NRF2/Keap1 (Homo sapiens, UniProt Q14145)

>  <IC50>
1 to 10 µM

$$$$
>  <molecule>
CCOC[C@@H]1CCCN1C(=O)C1CCCC(c2cccc(-n3ncc(C(=O)O)c3C3CC3)c2)C1 (single isomer, unassigned) [Example 18h]

>  <system_under_test>
NRF2/Keap1 (Homo sapiens, UniProt Q14145)

>  <IC50>
1 to 10 µM

$$$$
>  <molecule>
CC1(C)CCc2cnn([C@H]3CCC[C@@H](c4cccc(-n5ncc(C(=O)O)c5C5CC5)c4)C3)c21 (racemic)

>  <system_under_test>
NRF2/Keap1 (Homo sapiens, UniProt Q14145)

>  <IC50>
1 to 10 µM

$$$$
>  <molecule>
CC1CCN(C(=O)C2CCCC(c3cccc(-n4ncc(C(=O)O)c4C4CC4)c3)C2)C1 (racemic)

>  <system_under_test>
NRF2/Keap1 (Homo sapiens, UniProt Q14145)

>  <IC50>
1 to 10 µM

$$$$
>  <molecule>
O=C(O)c1cnn(-c2cccc(C3CCCC(C(=O)N4CCCCCC4)C3)c2)c1C1CC1 (centres unmarked)

>  <system_under_test>
NRF2/Keap1 (Homo sapiens, UniProt Q14145)

>  <IC50>
1 to 10 µM

$$$$
>  <molecule>
O=C(O)c1cnn(-c2cccc(C3CCCC(C(=O)N4CCCC4C4CC4)C3)c2)c1C1CC1 (racemic)

>  <system_under_test>
NRF2/Keap1 (Homo sapiens, UniProt Q14145)

>  <IC50>
0.1 to 1 µM

$$$$
>  <molecule>
CCCC1CCc2cnn([C@@H]3CCC[C@H](c4cccc(-n5ncc(C(=O)O)c5C5CC5)c4)C3)c21 (mixture of isomers)

>  <system_under_test>
NRF2/Keap1 (Homo sapiens, UniProt Q14145)

>  <IC50>
1 to 10 µM

$$$$
>  <molecule>
O=C(O)c1cnn(-c2cccc(C3CCCC(C(=O)N4CCCC45CCCCC5)C3)c2)c1C1CC1 (racemic)

>  <system_under_test>
NRF2/Keap1 (Homo sapiens, UniProt Q14145)

>  <IC50>
1 to 10 µM

$$$$
>  <molecule>
CC1(C)CCCN1C(=O)C1CCCC(c2cccc(-n3ncc(C(=O)O)c3C3CC3)c2)C1 (racemic)

>  <system_under_test>
NRF2/Keap1 (Homo sapiens, UniProt Q14145)

>  <IC50>
1 to 10 µM

$$$$
>  <molecule>
CC1(C)CCc2cnn([C@@H]3CCC[C@@H](c4cccc(-n5ncc(C(=O)O)c5C5CC5)c4)C3)c21 (racemic)

>  <system_under_test>
NRF2/Keap1 (Homo sapiens, UniProt Q14145)

>  <IC50>
10 to 100 µM

$$$$
